- TEST_TARGET: glucocorticoid receptor (Homo sapiens)
- Sequence (P04150 524-777 limits assumed): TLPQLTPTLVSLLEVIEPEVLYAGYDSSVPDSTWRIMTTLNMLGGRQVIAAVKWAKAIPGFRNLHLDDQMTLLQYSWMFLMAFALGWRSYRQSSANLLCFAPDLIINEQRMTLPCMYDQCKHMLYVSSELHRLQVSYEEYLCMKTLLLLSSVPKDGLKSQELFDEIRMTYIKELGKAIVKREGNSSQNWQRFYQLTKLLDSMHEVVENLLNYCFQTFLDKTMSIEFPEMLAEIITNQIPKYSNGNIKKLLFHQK
- PROTOCOL_NOTES: GRE reporter gene test (Experiment Example 2), HEK293T cells transfected with pGL4.35 and p-Bind GR Vector
- Type: cell-based
- RUN_PARAMETERS: HEK-293T
ATTRIBUTE_MEASURED: Emax (%)
One number for each entry, in %.

| COMPOUND | ATTRIBUTE_MEASURED | OBSERVED_RESULT |
| --- | --- | --- |
| C[C@@H]1C[C@H]2[C@@H]3CCC4=CC(=O)C=C[C@]4(C)[C@@]3(F)[C@@H](O)C[C@]2(C)[C@@]1(O)C(=O)CO [Dexamethasone, reference compound] | Emax | 98.3 |
| C[C@@H]1C[C@H]2[C@@H]3C[C@H](F)C4=CC(=O)C=C[C@]4(C)[C@@]3(F)[C@@H](O)C[C@]2(C)[C@@]1(OC(=O)c1cccc(CO)c1)C(=O)SCF [B-35] | Emax | 66.2 |
| C[C@@H]1C[C@H]2[C@@H]3C[C@H](F)C4=CC(=O)C=C[C@]4(C)[C@@]3(F)[C@@H](O)C[C@]2(C)[C@@]1(OC(=O)c1cc(CO)co1)C(=O)SCF [F-9] | Emax | 134 |
| CC(O)C(=O)O[C@]1(C(=O)SCF)[C@H](C)C[C@H]2[C@@H]3C[C@H](F)C4=CC(=O)C=C[C@]4(C)[C@@]3(F)[C@@H](O)C[C@@]21C (stereo partly drawn) [D-9] | Emax | 146 |

Problem: Entry C[C@@H]1C[C@H]2[C@@H]3C[C@H](F)C4=CC(=O)C=C[C@]4(C)[C@@]3(F)[C@@H](O)C[C@]2(C)[C@@]1(OC(=O)c1ccc(CO)o1)C(=O)SCF [F-13] : reported Emax = ?
Solution: 104
